Each recorded value in this set is attributed to PubChem BioAssay (NCATS).

# testedTarget: Nucleoprotein (Lymphocytic choriomeningitis virus (strain Armstrong)) (UniProt P09992)
# Sequence (P09992 whole entry, looked up): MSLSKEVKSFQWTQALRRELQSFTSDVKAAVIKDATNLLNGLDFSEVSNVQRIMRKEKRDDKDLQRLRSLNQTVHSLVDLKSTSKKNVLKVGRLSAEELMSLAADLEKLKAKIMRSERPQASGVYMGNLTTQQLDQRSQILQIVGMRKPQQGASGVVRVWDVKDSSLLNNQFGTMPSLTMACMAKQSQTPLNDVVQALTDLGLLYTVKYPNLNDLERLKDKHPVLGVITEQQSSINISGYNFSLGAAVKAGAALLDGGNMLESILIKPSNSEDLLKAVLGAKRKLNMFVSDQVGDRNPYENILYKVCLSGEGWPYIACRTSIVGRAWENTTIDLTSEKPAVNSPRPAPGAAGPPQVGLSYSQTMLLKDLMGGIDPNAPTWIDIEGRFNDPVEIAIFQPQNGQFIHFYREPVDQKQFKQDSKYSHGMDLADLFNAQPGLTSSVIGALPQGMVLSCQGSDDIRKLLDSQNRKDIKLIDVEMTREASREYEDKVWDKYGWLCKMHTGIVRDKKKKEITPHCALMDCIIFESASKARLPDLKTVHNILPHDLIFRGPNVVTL
# testProtocol: qHTS for Inhibitors of the Functional Ribonucleoprotein Complex (vRNP) of Lymphocytic Choriomeningitis Arenaviruses (LCMV): LCMV Primary Screen - GLuc reporter signal (AID 1347086); note: nearly all actives have a fitted effect of over 70% in size
# statedConditions: LCMV minigenome vRNP cell assay, Gaussia luciferase reporter; series mostly up to 57.5 µM
Records with an inconclusive call do not appear. Activity calls are given as the source filed them. Calls come from the whole dose curve.
Can you answer with just one of these options? true (1) (active), false (0) (inactive)

Sample answers from the record:
INSERT INTO measurements (compound, testedtarget, discretelabel) VALUES
  ('CC(=O)O[C@H]1C[C@@]2(O)[C@@H](OC(=O)c3ccccc3)C3[C@@](C)([C@@H](O)C[C@H]4OC[C@@]34OC(C)=O)[C@@H](O)[C@H](OC(C)=O)C(=C1C)C2(C)C (stereo not given in full)', 'Nucleoprotein (Lymphocytic choriomeningitis virus (strain Armstrong)) (UniProt P09992)', 'false (0)'),
  ('CC(C)Nc1nc(N)nc(Cl)n1', 'Nucleoprotein (Lymphocytic choriomeningitis virus (strain Armstrong)) (UniProt P09992)', 'false (0)'),
  ('CC[N+](CC)(CC)CC(=O)Nc1c(C)cccc1C', 'Nucleoprotein (Lymphocytic choriomeningitis virus (strain Armstrong)) (UniProt P09992)', 'false (0)'),
  ('CC(=O)O[C@]1(C(C)=O)CC[C@H]2[C@@H]3C=C(C)C4=CC(=O)CC[C@]4(C)[C@@H]3CC[C@@]21C', 'Nucleoprotein (Lymphocytic choriomeningitis virus (strain Armstrong)) (UniProt P09992)', 'false (0)'),
  ('COc1cccc2c(=O)c3ccoc3n(C)c12', 'Nucleoprotein (Lymphocytic choriomeningitis virus (strain Armstrong)) (UniProt P09992)', 'false (0)');

Incoming: Write down the call the test reported for this compound. Item: Cn1c(=O)c2[nH]c(C3CCCC3)nc2n(C)c1=O
Outgoing: false (0)

Incoming: Write down the call the test reported for this compound. Item: CC(C)(CO)Cc1cc(C(C)(C)C)c(O)c(C(C)(C)C)c1
Outgoing: false (0)

Incoming: Write down the call the test reported for this compound. Item: C=CC[C@H](N)C(=O)O
Outgoing: false (0)

Incoming: Write down the call the test reported for this compound. Item: CCCCOc1cc(CC2CNC(=O)N2)ccc1OC (stereo not given)
Outgoing: false (0)

Incoming: Write down the call the test reported for this compound. Item: CC/C=C\CCOC(=O)CC
Outgoing: false (0)

Incoming: Write down the call the test reported for this compound. Item: CNC(=O)c1ccc2cc(C3(O)CCn4cncc43)ccc2c1 (stereo not given)
Outgoing: false (0)

Incoming: Write down the call the test reported for this compound. Item: C/C(=N/N=C(\C)c1ccccc1O)c1ccccc1O
Outgoing: false (0)

Incoming: Write down the call the test reported for this compound. Item: COc1ccc(-c2cc3nccn3c(Nc3ncccc3C(N)=O)n2)cc1OC
Outgoing: false (0)

Incoming: Write down the call the test reported for this compound. Item: COc1cc2c(c(OC)c1OC)-c1c(cc(OC)c(OC)c1OC)CC(C)C(C)C2 (stereo not given)
Outgoing: false (0)

Incoming: Write down the call the test reported for this compound. Item: Cc1cc(N2CCOCC2)cc2[nH]c(-c3c(NC[C@@H](O)c4cccc(Cl)c4)cc[nH]c3=O)nc12
Outgoing: true (1)

###

# testProtocol: qHTS for Inhibitors of the Functional Ribonucleoprotein Complex (vRNP) of Lassa (LASV) Arenavirus: LASV Primary Screen - GLuc reporter signal (AID 1347082); note: nearly all actives have a fitted effect of over 60% in size
# statedConditions: LASV minigenome vRNP, Gaussia luciferase reporter; series mostly up to 57.5 µM
Inconclusive results are not listed. Calls of active or inactive are those of the source. Calls come from the whole dose curve; tested in HEK293 reporter line.
Can you answer with just one of these options? yes (active), no (inactive)

INSERT INTO assay_data (molecule, discretelabel) VALUES
  ('O=C1N[C@@H](Cc2c[nH]c3ccccc23)C(=O)N[C@H]1Cc1ccccc1', 'no');

Incoming: Write down the call the test reported for this molecule. Item: O=C(/C=C/c1ccccc1)OCCc1ccccc1
Outgoing: no

Incoming: Write down the call the test reported for this molecule. Item: CCN1CCN(c2ccc(Nc3cc(N(C)C(=O)Nc4c(Cl)c(OC)cc(OC)c4Cl)ncn3)cc2)CC1
Outgoing: no

Incoming: Write down the call the test reported for this molecule. Item: C=C1[C@H]2O[C@H]2[C@@H](OC(C)=O)[C@@]2(C)[C@@H](OC(C)=O)C[C@@H](OC(C)=O)[C@@](C)(O)[C@@H]2[C@@H](OC(C)=O)[C@@]2(O)[C@@H](C)C(=O)O[C@H]2[C@H]1Cl
Outgoing: no

Incoming: Write down the call the test reported for this molecule. Item: C[C@@]12CC[C@H]3OC(=O)C=C3C1CC[C@@]13CC(CCC12)[C@](CO)(O[C@H]1O[C@H](CO)[C@@H](O)[C@H](O)[C@H]1O)C3 (stereo not given in full)
Outgoing: no

Incoming: Write down the call the test reported for this molecule. Item: CCOc1ccc(O)cc1
Outgoing: no
